test system: VDR signaling (Cyp24A1 mRNA) in C3H10T1/2 cells; assay: Cyp24A1 mRNA up-regulation (qPCR) in C3H10T1/2 cells; format: cell-based, mouse; details: Mus musculus, C3H 10T1/2, 5 μM with OHCs 5 μM, 24 h, relative to DMSO (set to 1.0)
readout_name: fold induction at 5 µM
# print the numeric value only

Below: 4 compounds and their reported fold induction at 5 µM.
1) C[C@H](COCC(C)(C)O)[C@H]1CC[C@H]2[C@@H](OC(=O)c3ccc(Cl)cc3)CCC[C@]12C
105
2) COc1ccc(C(=O)O[C@H]2CCC[C@]3(C)[C@@H]([C@H](C)COCC(C)(C)O)CC[C@@H]23)cc1O
83.6
3) CC(C)COC[C@@H](C)[C@H]1CC[C@H]2[C@@H](OC(=O)c3cc(O)cc(O)c3)CCC[C@]12C
11.4
4) C[C@H](COCC(C)(C)O)[C@H]1CC[C@H]2[C@@H](OC(=O)c3ccc(O)cc3)CCC[C@]12C
127

// switching to the query compound
q: Which fold induction at 5 µM reading was recorded for the compound `CC(C)COC[C@@H](C)[C@H]1CC[C@H]2[C@@H](OC(=O)c3cc([N+](=O)[O-])cc([N+](=O)[O-])c3)CCC[C@]12C` ?
a: 9.8
